test: Stability in human plasma; type: in vitro ADME; details: human, plasma, Diastereoisomer B, 37° C., read-out: t1/2, Human Plasma, Diastereoisomer B (converted)
Task for the reader: assign each of the following compounds its reported half-life at 3 µM.

Prompt: For the compound shown here, COC(=O)CCNC(=O)[C@@H]1OP(=O)(OCOC(=O)C2(C(N)=O)CC2)OCC1(C)C (stereo partly shown) [Compound No. 83] , give the reported half-life at 3 µM.
Response: < 9.6 min

Prompt: # half-life at 3 µM lookup, item COC(=O)CCNC(=O)[C@@H]1OP(=O)(N[C@H](C(=O)OCc2ccccc2)C(C)C)OCC1(C)C (stereo partly shown) [compound 13]
Response: > 60 min

Prompt: Any idea what its half-life at 3 µM is? The compound is Cc1cc(COC(=O)CCNC(=O)[C@@H]2OP(=O)(N[C@@H](C)C(=O)OCCc3ccccc3)OCC2(C)C)no1 (stereo partly shown) [compound 40]
Response: > 60 min

Prompt: For COC(=O)CCNC(=O)[C@@H]1OP(=O)(OCOC(=O)OC(C)(C)C)OCC1(C)C (stereo partly shown) [compound 88] , what is its reported half-life at 3 µM?
Response: 21.6 min

Prompt: What does the data say about its half-life at 3 µM? Entry: C[C@H](NP1(=O)OCC(C)(C)[C@H](C(=O)NCCC(=O)OC(C)(C)C)O1)C(=O)OCCc1ccccc1 (stereo partly shown) [compound 33]
Response: > 60 min

Prompt: Given the entry Cc1cc(COC(=O)CCNC(=O)[C@@H]2OP(=O)(OCOC(=O)C(C)(C)C)OCC2(C)C)no1 (single isomer, unassigned) [Compound No. 74] , report its measured half-life at 3 µM.
Response: < 9.6 min

Prompt: Item COC(=O)CCNC(=O)[C@@H]1OP(=O)(N[C@@H](Cc2cncs2)C(=O)OCc2ccccc2)OCC1(C)C (stereo partly shown) [compound 29] has what recorded half-life at 3 µM?
Response: > 60 min

Prompt: Name the recorded half-life at 3 µM for COC(=O)[C@H](C)NP1(=O)OCC(C)(C)[C@H](C(=O)NCCC(=O)OCCN2CCCC2)O1 (stereo partly shown) [compound 19] .
Response: > 60 min

Prompt: Reported half-life at 3 µM, compound COC(=O)CCNC(=O)[C@@H]1OP(=O)(N[C@@H](C)C(=O)OCCc2scnc2C)OCC1(C)C (stereo partly shown) [compound 31] : ____
Response: > 60 min

Prompt: Fill in: half-life at 3 µM of COC(=O)CCNC(=O)[C@@H]1OP(=O)(N[C@@H](C)C(=O)OCc2cccnc2)OCC1(C)C (stereo partly shown) [compound 24] is ___
Response: 49.2 min

Prompt: What value of half-life at 3 µM has been reported for the following compound? COC(=O)CCNC(=O)[C@@H]1OP(=O)(N[C@@H](C)C(=O)OCc2cc(C)cc(C)c2)OCC1(C)C (stereo partly shown) [compound 3]
Response: > 60 min

Prompt: I'd like to know its half-life at 3 µM. The compound in question is COC(=O)CCNC(=O)[C@@H]1OP(=O)(OCOC(=O)c2cnccn2)OCC1(C)C (stereo partly shown) [compound 86]
Response: < 9.6 min

Prompt: Bench note: what half-life at 3 µM did COC(=O)CCNC(=O)[C@@H]1OP(=O)(N[C@@H](Cc2ccc(OC(C)(C)C)cc2)C(=O)OC(C)(C)C)OCC1(C)C (stereo partly shown) [compound 15] show?
Response: > 60 min

Source of measurements: patent US10364263B2
